system: WPMY1-TUBA1B-RELA; assay: lowest phenotypically active concentration; higher = less potent; conditions: treatment time: 24 h
For each entry below, report its lowest phenotypically active concentration value.

Task item: State the measured lowest phenotypically active concentration (WPMY1-TUBA1B-RELA) of `CC[C@H](CO)Nc1nc(NCc2ccc(-c3ccccn3)cc2)c2ncn(C(C)C)c2n1`
Reply: ≤ 0.3 µM

Task item: State the measured lowest phenotypically active concentration (WPMY1-TUBA1B-RELA) of `CN1CCN([C@H]2CC[C@H](n3cc(-c4ccc(Oc5ccccc5)cc4)c4c(N)ncnc43)CC2)CC1`
Reply: ≤ 0.3 µM

Task item: State the measured lowest phenotypically active concentration (WPMY1-TUBA1B-RELA) of `C[C@H]1COCCN1c1cc(C2(S(=O)(=O)C3CC3)CC2)nc(-c2ccc(NC(=S)NCCO)cc2)n1`
Reply: ≤ 0.3 µM

Task item: State the measured lowest phenotypically active concentration (WPMY1-TUBA1B-RELA) of `CC[C@H](C)[C@H](NC(=O)OCc1ccccc1)C(=O)N[C@@H](CCC(=O)OC(C)(C)C)C(=O)N[C@@H](C)C(=O)N[C@H](C=O)CC(C)C`
Reply: ≤ 0.3 µM

Task item: State the measured lowest phenotypically active concentration (WPMY1-TUBA1B-RELA) of `CN(C)C1CCN(C(=O)c2ccc(NC(=O)Nc3ccc(-c4nc(N5CCOCC5)nc(N5CCOCC5)n4)cc3)cc2)CC1`
Reply: ≤ 0.3 µM
